Cited source for all entries: patent US11981658B2

- system_tested: EGFR L858R/T790M/C797S (Homo sapiens, UniProt P00533, C797S/L858R/T790M)
- Sequence (P00533 25-1210 T790M/C797S/L858R): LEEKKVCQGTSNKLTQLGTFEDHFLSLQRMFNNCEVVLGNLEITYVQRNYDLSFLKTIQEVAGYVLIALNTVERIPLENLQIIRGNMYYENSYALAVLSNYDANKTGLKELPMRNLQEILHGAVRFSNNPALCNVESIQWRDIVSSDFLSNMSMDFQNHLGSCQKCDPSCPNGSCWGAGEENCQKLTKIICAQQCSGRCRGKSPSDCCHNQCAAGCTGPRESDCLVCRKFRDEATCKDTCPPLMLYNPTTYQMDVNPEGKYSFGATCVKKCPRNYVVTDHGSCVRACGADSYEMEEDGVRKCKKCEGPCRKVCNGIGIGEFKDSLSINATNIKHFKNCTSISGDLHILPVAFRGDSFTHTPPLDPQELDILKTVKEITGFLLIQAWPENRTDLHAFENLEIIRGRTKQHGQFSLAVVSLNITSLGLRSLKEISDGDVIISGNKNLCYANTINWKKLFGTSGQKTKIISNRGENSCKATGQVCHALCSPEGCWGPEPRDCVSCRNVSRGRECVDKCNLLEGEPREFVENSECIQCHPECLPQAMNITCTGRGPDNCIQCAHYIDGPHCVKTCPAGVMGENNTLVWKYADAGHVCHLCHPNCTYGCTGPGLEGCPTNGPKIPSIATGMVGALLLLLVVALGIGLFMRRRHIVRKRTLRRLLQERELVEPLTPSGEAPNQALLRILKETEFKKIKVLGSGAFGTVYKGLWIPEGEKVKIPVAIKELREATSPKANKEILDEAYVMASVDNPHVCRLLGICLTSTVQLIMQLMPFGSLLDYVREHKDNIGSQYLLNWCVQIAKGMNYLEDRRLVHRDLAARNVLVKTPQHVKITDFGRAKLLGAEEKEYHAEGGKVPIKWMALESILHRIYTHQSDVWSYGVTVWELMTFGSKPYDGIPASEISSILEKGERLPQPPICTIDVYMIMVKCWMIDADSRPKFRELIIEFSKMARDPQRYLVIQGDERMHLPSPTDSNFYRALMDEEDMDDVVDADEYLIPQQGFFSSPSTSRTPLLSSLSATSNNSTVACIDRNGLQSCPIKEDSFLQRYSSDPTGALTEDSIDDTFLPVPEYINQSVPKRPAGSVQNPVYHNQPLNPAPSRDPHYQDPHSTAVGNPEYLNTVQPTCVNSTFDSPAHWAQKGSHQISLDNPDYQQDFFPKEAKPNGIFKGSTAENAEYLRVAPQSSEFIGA
- run_description: Biochemical EGFR kinase inhibition assay (Lance Ultra TR-FRET), triple mutant L858R/T790M/C797S
- measurement_conditions: IC50 L858R/T790M/C797S (nM), 100 μM ATP
Where a name gives a salt, the structure may show the parent alone.
reported_endpoint: IC50 (nM)
Write it as a number; the unit nM goes unstated.

Example entries begin here.
molecule: CN(C)CC1(F)CCN(c2cc(Nc3ccnc(-c4cnn(S(=O)(=O)C5CC5)c4)n3)ncc2C#Cc2cnn(C)c2)CC1 [Example 293, formate]
IC50, nM: 1.3
//
molecule: O=S(=O)(C1CC1)n1cc(-c2nccc(Nc3cc(N4CCCC(CO)C4)c(C#Cc4cnn(C5CCOCC5)c4)cn3)n2)cn1 (stereo not drawn)
IC50, nM: 5.6

Problem: What does the data say about its IC50? Entry: O=S(=O)(C1CC1)n1cc(-c2nccc(Nc3cc(NC4CCC(O)CC4)c(C#CC4CCOC4)cn3)n2)cn1 (stereo not drawn)
Solution: 0.6

Problem: And the next one, CN1CCC2(CC1)CCN(c1cc(Nc3ccnc(-c4cnn(S(=O)(=O)C5CC5)c4)n3)ncc1C#Cc1cnn(CC3CC3)c1)CC2 ?
Solution: 0.8

Problem: And the next one, CN1CCC2(CC1)CCN(c1cc(Nc3ccnc(-c4cnn(S(=O)(=O)C5CC5)c4)n3)ncc1C#Cc1cnn(C3CC3)c1)CC2 ?
Solution: 0.3

Problem: And the next one, CC1(CO)CCN(c2cc(Nc3ccnc(-c4cnn(S(=O)(=O)C5CC5)c4)n3)ncc2C#CC2CCCO2)CC1 (stereo not drawn) ?
Solution: 0.4

----------
- system_tested: EGFR Del19/C797S (Homo sapiens, UniProt P00533, C797S/DEL746-750)
- Sequence (P00533 with tags, fused parts or gaps DEL746-750/C797S): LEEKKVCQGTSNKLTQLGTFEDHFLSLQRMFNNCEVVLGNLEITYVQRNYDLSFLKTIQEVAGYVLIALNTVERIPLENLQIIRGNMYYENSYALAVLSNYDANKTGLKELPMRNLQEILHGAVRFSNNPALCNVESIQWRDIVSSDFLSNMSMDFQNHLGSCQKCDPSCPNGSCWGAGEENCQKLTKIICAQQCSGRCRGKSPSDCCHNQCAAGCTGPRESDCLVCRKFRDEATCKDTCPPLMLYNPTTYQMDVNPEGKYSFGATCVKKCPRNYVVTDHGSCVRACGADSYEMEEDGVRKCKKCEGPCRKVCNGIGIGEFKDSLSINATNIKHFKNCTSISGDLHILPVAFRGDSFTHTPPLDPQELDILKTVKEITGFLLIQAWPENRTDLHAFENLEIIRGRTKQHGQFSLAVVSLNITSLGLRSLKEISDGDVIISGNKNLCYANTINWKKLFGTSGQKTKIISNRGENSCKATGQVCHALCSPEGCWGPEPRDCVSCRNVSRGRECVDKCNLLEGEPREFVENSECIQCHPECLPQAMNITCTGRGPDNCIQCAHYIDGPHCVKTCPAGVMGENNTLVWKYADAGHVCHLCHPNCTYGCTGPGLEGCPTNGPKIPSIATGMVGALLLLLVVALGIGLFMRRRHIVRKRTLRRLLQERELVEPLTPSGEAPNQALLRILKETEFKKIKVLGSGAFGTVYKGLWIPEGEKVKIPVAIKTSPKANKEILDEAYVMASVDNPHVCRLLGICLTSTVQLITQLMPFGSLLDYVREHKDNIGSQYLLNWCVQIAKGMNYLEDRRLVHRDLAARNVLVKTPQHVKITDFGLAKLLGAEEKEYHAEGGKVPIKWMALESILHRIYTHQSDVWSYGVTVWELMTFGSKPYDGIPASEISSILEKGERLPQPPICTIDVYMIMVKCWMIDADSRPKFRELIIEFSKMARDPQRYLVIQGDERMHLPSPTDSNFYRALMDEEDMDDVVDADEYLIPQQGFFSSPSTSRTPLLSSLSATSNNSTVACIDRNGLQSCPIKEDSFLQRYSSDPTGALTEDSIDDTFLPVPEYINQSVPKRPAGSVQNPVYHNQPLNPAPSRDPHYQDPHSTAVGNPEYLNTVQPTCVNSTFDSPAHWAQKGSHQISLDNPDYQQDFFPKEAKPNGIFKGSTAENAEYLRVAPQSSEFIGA
- run_description: Biochemical EGFR kinase inhibition assay (Lance Ultra TR-FRET), double mutant del19/C797S
- measurement_conditions: IC50 Del19/C797S (nM), 100 μM ATP
IC50 by entry:
Write it as a number; the unit nM goes unstated.

compound: Cn1cnc(C#Cc2cnc(Nc3ccnc(-c4cnn(S(=O)(=O)C5CC5)c4)n3)cc2N[C@H]2CC[C@@H](O)CC2)n1
reported_endpoint: IC50
measure_unit: nM
number: 88.8

compound: CC1(CO)CCN(c2cc(Nc3ccnc(-c4cnn(S(=O)(=O)C5CC5)c4)n3)ncc2C#CC2CCCC2)CC1
reported_endpoint: IC50
measure_unit: nM
number: 15.9

compound: O=S(=O)(C1CC1)n1cc(-c2nccc(Nc3cc(NC4CCC(O)CC4)c(C#CC4(O)CCOC4)cn3)n2)cn1 (stereo not drawn)
reported_endpoint: IC50
measure_unit: nM
number: 0.9

compound: O=S(=O)(C1CC1)n1cc(-c2nccc(Nc3cc(N[C@H]4CC[C@@H](O)CC4)c(C#CC4(O)CCCCC4)cn3)n2)cn1
reported_endpoint: IC50
measure_unit: nM
number: 10.8

compound: CC(=O)N1CCC(n2cc(C#Cc3cnc(Nc4ccnc(-c5cnn(S(=O)(=O)C6CC6)c5)n4)cc3N3CCC(F)CC3)cn2)CC1
reported_endpoint: IC50
measure_unit: nM
number: 5.2

Now look at this one.
Problem: What does the data say about its IC50? Entry: CS(=O)(=O)N1CCC(C#Cc2cnc(Nc3ccnc(-c4cnn(S(=O)(=O)C5CC5)c4)n3)cc2NC2CCC(CO)CC2)C1 (stereo not drawn)
Solution: 1.5
